# Tested on: L1210 leukemia ip in BDF1 mice, survival T/C
# Protocol Details: NCI In Vivo Anticancer Drug Screen. Data for tumor model L1210 Leukemia (intraperitoneal) in B6D2F1 (BDF1) mice
# Condition Info: endpoint: mean survival time; dose: 200.0 mg/kg/injection; schedule: Q04DX003 (ip); vehicle: saline; higher = longer survival
Toxic doses and inconclusive results are not listed.

| Chem Smiles | T/C |
| --- | --- |
| COc1cc(C2=C3C(=O)OC[C@@H]3Cc3cc4c(cc32)OCO4)cc(OC)c1OC | 96 % of control |
| O=Cc1c[nH]c2ccc(Br)cc12 | 105 % of control |
| c1ccc(SCN2CCN(CSc3ccccc3)CC2)cc1 | 101 % of control |

---

In this section, each of the compounds is paired with its reported T/C.
# System: L1210 leukemia ip in BDF1 mice, survival T/C
# Protocol Details: NCI In Vivo Anticancer Drug Screen. Data for tumor model L1210 Leukemia (intraperitoneal) in B6D2F1 (BDF1) mice
# Condition Info: endpoint: mean survival time; dose: 100.0 mg/kg/injection; schedule: Q01DX009 (ip); vehicle: saline with Tween-80; higher = longer survival
Toxic doses and inconclusive results are not listed.
Test Readout: T/C

| Compound | Experimental Target | Recorded Measurement |
| --- | --- | --- |
| CCC(CO)NC(=O)Nc1cccc2ccccc12 (stereo not drawn) | L1210 leukemia ip in BDF1 mice, survival T/C | 102 % of control |
| C[Si](C)(CCCOCC1CO1)O[Si](C)(C)CCCOCC1CO1 (stereo not drawn) | L1210 leukemia ip in BDF1 mice, survival T/C | 97 % of control |
| CC(C)(C)/[N+]([O-])=[N+](\[O-])C(C)(C)C (tested in a mixture with another compound) | L1210 leukemia ip in BDF1 mice, survival T/C | 98 % of control |
| CCOC(=O)c1cc2ccccc2n1-c1ccccc1 | L1210 leukemia ip in BDF1 mice, survival T/C | 111 % of control |
| C=CCN(CC=C)/N=N/c1[nH]ncc1C(=O)OCC | L1210 leukemia ip in BDF1 mice, survival T/C | 106 % of control |
| O=C(O)/C(=C(/Cc1ccccc1)C(=O)c1ccccc1)c1ccccc1 | L1210 leukemia ip in BDF1 mice, survival T/C | 88 % of control |
| CCc1cc(C)cc(OC(=O)Nc2cc(Cl)ccc2OC)c1 | L1210 leukemia ip in BDF1 mice, survival T/C | 95 % of control |
| CCCCCC(/C=C/C1C=CC(=O)C1C/C=C/CCCC(=O)OC)OC(C)=O (stereo not drawn) | L1210 leukemia ip in BDF1 mice, survival T/C | 100 % of control |

---

# Test system: L1210 leukemia ip in BDF1 mice, survival T/C
# Protocol Details: NCI In Vivo Anticancer Drug Screen. Data for tumor model L1210 Leukemia (intraperitoneal) in B6D2F1 (BDF1) mice
# Condition Info: endpoint: mean survival time; dose: 400.0 mg/kg/injection; schedule: Q01DX001 (ip); vehicle: carboxymethylcellulose (CMC); higher = longer survival
Toxic doses and inconclusive results are not listed.
List of T/C values.

| Molecule | T/C |
| --- | --- |
| O=C1NC(=S)S/C1=C\c1ccncc1 | 99 % of control |
| COc1cc(-c2[o+]c3cc(O)cc(O)c3cc2OC2OC(CO)C(O)C(O)C2O)cc(OC)c1O (stereo not given) | 100 % of control |
| Cc1cc(C)c(C(=O)N/N=C/c2ccc(N(CCCl)CCCl)cc2)c(=O)[nH]1 | 92 % of control |
| CCC(=O)OC1CCC2C3CCC4=CC(=O)CCC4(C)C3CCC12C (stereo not given) | 96 % of control |
| O=C(S)CN1C(=O)c2ccccc2C1=O | 102 % of control |
